Provenance of the data: patent US10759751B2

molecular target: human muscarinic M1 receptor (Homo sapiens, UniProt P11229); assay: Alphascreen Surefire phospho-ERK1/2 functional assay, M1; type: cell-based; details: CHO, read-out: M1 % Emax cf. ACh, CHO cells stably expressing human M1; Emax relative to ACh
Sequence (P11229 whole entry): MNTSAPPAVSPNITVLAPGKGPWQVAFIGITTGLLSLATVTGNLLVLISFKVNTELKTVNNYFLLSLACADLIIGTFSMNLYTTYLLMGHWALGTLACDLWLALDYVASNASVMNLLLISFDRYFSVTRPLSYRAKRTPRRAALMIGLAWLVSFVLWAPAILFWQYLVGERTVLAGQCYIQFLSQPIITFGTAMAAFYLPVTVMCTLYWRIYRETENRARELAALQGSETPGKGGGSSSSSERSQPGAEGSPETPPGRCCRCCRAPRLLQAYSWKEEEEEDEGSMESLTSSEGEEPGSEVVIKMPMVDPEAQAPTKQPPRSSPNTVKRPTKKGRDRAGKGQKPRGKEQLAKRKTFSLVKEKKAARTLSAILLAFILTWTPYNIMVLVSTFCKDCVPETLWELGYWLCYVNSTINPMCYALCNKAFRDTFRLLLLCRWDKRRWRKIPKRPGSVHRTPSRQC

{"molecule": "CCOC(=O)N[C@H]1CCN(C2CCC(C#N)(c3ccccc3)CC2)C1 (single isomer, unassigned) [1-1 Isomer 2]", "Emax (%)": 117}
{"molecule": "CCOC(=O)N[C@H]1CCN(C2CCC(C#N)(c3ccc(F)cc3)CC2)C1 (single isomer, unassigned) [1-4 Isomer 2]", "Emax (%)": 98}
{"molecule": "CCOC(=O)N1CCCN(C2CCC(C#N)(c3ccccn3)CC2)CC1 (mixture of isomers) [3-11 mixture of isomers]", "Emax (%)": 97}
{"molecule": "CCOC(=O)N[C@@H]1CCN(C2CCC(C#N)(c3ccccc3F)CC2)C1 (single isomer, unassigned) [1-5 Isomer 2]", "Emax (%)": 125}
{"molecule": "CCOC(=O)N1CCCN(C2CCC3(CC2)CN(S(C)(=O)=O)c2ncccc23)CC1 (single isomer, unassigned) [4-19 isomer 1]", "Emax (%)": 104}
{"molecule": "Cc1noc(C2CC2CNC2CCC3(CC2)C(=O)Nc2ccccc23)n1 (single isomer, unassigned) [23-1 Isomer 1]", "Emax (%)": 113}
{"molecule": "CCOC(=O)N1CCN(C2CCC(C#N)(c3ccccc3)CC2)CC(O)C1 (mixture of isomers) [3-26 mixture of isomers]", "Emax (%)": 85}

---

Below, each entry is listed with its recorded Emax.
target: human muscarinic M1 receptor (Homo sapiens); assay: Alphascreen Surefire phospho-ERK1/2 functional assay, M1; format: cell-based; settings: CHO, read-out: M1 % Emax cf. ACh, CHO cells stably expressing human M1; Emax relative to ACh
property: Emax (%)

{"molecule": "CCCC(=O)N1CCCN(C2CCC3(CC2)C(=O)Nc2ccccc23)CC1 (single isomer, unassigned) [4-3 isomer 2]", "valueObserved": 57}
{"molecule": "CCOC(=O)N1CCCN(C2CCC(C#N)(c3ccc(OCC)cn3)CC2)CC1 (single isomer, unassigned) [3-20 Isomer 2]", "valueObserved": 139}
{"molecule": "COC(=O)N1CCCN(C2CCC(C#N)(c3ccccc3)CC2)CC1 (mixture of isomers) [3-28 mixture of isomers]", "valueObserved": 116}
{"molecule": "CCOC(=O)N[C@H]1CCN(C2CCC3(CC2)C(=O)Nc2cnc(OC)cc23)C1 (single isomer, unassigned) [2-19 isomer 1]", "valueObserved": 63}
{"molecule": "CC#CCOC(=O)N1CCCN(C2CCC(C#N)(c3ccncc3)CC2)CC1 (single isomer, unassigned) [3-30 Isomer 1]", "valueObserved": 104}
{"molecule": "Cc1ccc(C2(C#N)CCC(N[C@@H]3CC[C@H](c4nc(C(F)(F)F)no4)C3)CC2)nc1 (single isomer, unassigned) [28-2 Isomer 2]", "valueObserved": 40}
{"molecule": "CCOC(=O)N1CCCN(C2CCC(C#N)(c3ccc(C(F)(F)F)cn3)CC2)CC1 (mixture of isomers) [3-21 mixture of isomers]", "valueObserved": 90}
{"molecule": "CCOC(=O)N1CCCN(C2CCC(C#N)(c3ccccc3C)CC2)CC1 (mixture of isomers) [3-7 mixture of isomers]", "valueObserved": 101}
{"molecule": "CCOC(=O)N[C@H]1CCN(C2CCC3(CC2)C(=O)Nc2cccc(C)c23)C1 (single isomer, unassigned) [2-6 isomer 1]", "valueObserved": 66}
{"molecule": "CCOC(=O)N[C@H]1CCN(C2CCC3(CC2)C(=O)Nc2ccc(F)cc23)C1 (single isomer, unassigned) [2-8 isomer 1]", "valueObserved": 59}
{"molecule": "CCOC(=O)N[C@H]1CCN(C2CCC3(CC2)C(=O)Nc2ccc(C)cc23)C1 (single isomer, unassigned) [2-5 isomer 1]", "valueObserved": 49}
{"molecule": "CCOC(=O)N1CCC2(CCN(C3CCC4(CC3)C(=O)Nc3ccccc34)CC2)C1 (single isomer, unassigned) [12-1 isomer 1]", "valueObserved": 109}
